- Tested on: Escherichia coli TOP10;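 also: peptides expressed intracellularly from a pBAD plasmid library in pooled LB shake-flask culture, induced with 0.3% L-arabinose, DNA abundance read by NGS, three biological replicates, DESeq2 with apeglm shrinkage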
- Assay protocol: shrunken log2 fold change of peptide-encoding DNA abundance (4.5 h post-induction vs induction); higher = less antimicrobial activity (less host growth inhibition)
- Applied conditions: time post-induction: 4.5 h; library: site-saturation at positions 5, 18, 19, 20
Experimental readout: shrunken log2 fold change
Lab note: jot the number down without any unit.

[Q] Item RRIRMRPPRLPRPRPRPRDPPRP has what recorded shrunken log2 fold change?
[A] 0.705

[Q] Item RRIRVRPPRLPRPRPRPSCTPRP has what recorded shrunken log2 fold change?
[A] -0.175

[Q] Item RRIRYRPPRLPRPRPRPAWCPRP has what recorded shrunken log2 fold change?
[A] -0.0756

[Q] Item RRIRYRPPRLPRPRPRPYFCPRP has what recorded shrunken log2 fold change?
[A] -1.09

[Q] Item RRIRGRPPRLPRPRPRPMIWPRP has what recorded shrunken log2 fold change?
[A] 0.589

[Q] Item RRIRVRPPRLPRPRPRPAPNPRP has what recorded shrunken log2 fold change?
[A] 0.334

[Q] Item RRIRMRPPRLPRPRPRPYFHPRP has what recorded shrunken log2 fold change?
[A] -0.614

[Q] Item RRIRARPPRLPRPRPRPRMTPRP has what recorded shrunken log2 fold change?
[A] 1.04

[Q] Item RRIRVRPPRLPRPRPRPHIPPRP has what recorded shrunken log2 fold change?
[A] -0.602

[Q] Item RRIRYRPPRLPRPRPRPAYSPRP has what recorded shrunken log2 fold change?
[A] -0.267

[Q] Item RRIRLRPPRLPRPRPRPRRWPRP has what recorded shrunken log2 fold change?
[A] 0.497

[Q] Item RRIRDRPPRLPRPRPRPCFTPRP has what recorded shrunken log2 fold change?
[A] 0.0373

[Q] Item RRIRTRPPRLPRPRPRPKQFPRP has what recorded shrunken log2 fold change?
[A] -0.103

[Q] Item RRIRRRPPRLPRPRPRPIEAPRP has what recorded shrunken log2 fold change?
[A] -0.137

[Q] Item RRIRVRPPRLPRPRPRPMETPRP has what recorded shrunken log2 fold change?
[A] -0.074

[Q] Item RRIRARPPRLPRPRPRPPIIPRP has what recorded shrunken log2 fold change?
[A] -0.308

[Q] Item RRIRCRPPRLPRPRPRPVVIPRP has what recorded shrunken log2 fold change?
[A] -0.223

[Q] Item RRIRERPPRLPRPRPRPLWSPRP has what recorded shrunken log2 fold change?
[A] -0.125

[Q] Item RRIRIRPPRLPRPRPRPQKIPRP has what recorded shrunken log2 fold change?
[A] -0.148

[Q] Item RRIRTRPPRLPRPRPRPCETPRP has what recorded shrunken log2 fold change?
[A] 0.0184

[Q] Item RRIRWRPPRLPRPRPRPYFAPRP has what recorded shrunken log2 fold change?
[A] -0.216

[Q] Item RRIRPRPPRLPRPRPRPIITPRP has what recorded shrunken log2 fold change?
[A] -0.587

[Q] Item RRIRERPPRLPRPRPRPIGQPRP has what recorded shrunken log2 fold change?
[A] 0.000367

[Q] Item RRIRKRPPRLPRPRPRPGWDPRP has what recorded shrunken log2 fold change?
[A] 0.364

[Q] Item RRIRERPPRLPRPRPRPLTVPRP has what recorded shrunken log2 fold change?
[A] -0.0383

[Q] Item RRIRQRPPRLPRPRPRPDTQPRP has what recorded shrunken log2 fold change?
[A] -0.401

[Q] Item RRIRWRPPRLPRPRPRPWDIPRP has what recorded shrunken log2 fold change?
[A] -0.309

[Q] Item RRIRERPPRLPRPRPRPRTCPRP has what recorded shrunken log2 fold change?
[A] -0.0174

[Q] Item RRIRGRPPRLPRPRPRPSGDPRP has what recorded shrunken log2 fold change?
[A] 0.952

[Q] Item RRIRFRPPRLPRPRPRPVSDPRP has what recorded shrunken log2 fold change?
[A] 0.00637

[Q] Item RRIRIRPPRLPRPRPRPRGDPRP has what recorded shrunken log2 fold change?
[A] 0.389

[Q] Item RRIRIRPPRLPRPRPRPCVRPRP has what recorded shrunken log2 fold change?
[A] -0.208
